meta.source: the Immune Epitope Database (IEDB)

- TARGET_OR_TEST_SYSTEM: HLA-B*15:09
- PROTOCOL_TEXT: IEDB peptide-MHC binding, purified MHC/direct/fluorescence; filed as Kd, often an IC50 or EC50 that approximates it; bounds were set here for any values at or beyond the usual limits of such assays
- SETTINGS: source organism: Orthomarburgvirus marburgense
RESULT_TYPE: Kd

Q: Return reported Kd; argument: FLMRNAIQY
Ans: ≥ 20 µM

###

- TARGET_OR_TEST_SYSTEM: HLA-A*23:01
- PROTOCOL_TEXT: IEDB peptide-MHC binding, purified MHC/direct/fluorescence; filed as Kd, often an IC50 or EC50 that approximates it; bounds were set here for any values at or beyond the usual limits of such assays
- SETTINGS: source organism: Zaire ebolavirus
Kindly supply the reported Kd values for the records listed here.

Q: // lookup Kd | system=HLA-A*23:01 | key= RLAKLTEAI
Ans: ≥ 20 µM

Q: Input ATAAATEAY
Ans: ≥ 20 µM

###

- TARGET_OR_TEST_SYSTEM: HLA-A*29:02
- PROTOCOL_TEXT: IEDB peptide-MHC binding, purified MHC/competitive/fluorescence; filed as Kd, often an IC50 or EC50 that approximates it; bounds were set here for any values at or beyond the usual limits of such assays
- SETTINGS: source organism: Entamoeba histolytica HM-1:IMSS
pKd: −log10 of the molar value.
RESULT_TYPE: pKd

Q: // lookup pKd | system=HLA-A*29:02 | key= KTRMEDYYL
Ans: ≤ 4.70

###

- TARGET_OR_TEST_SYSTEM: HLA-B*83:01
- PROTOCOL_TEXT: IEDB peptide-MHC binding, purified MHC/competitive/fluorescence; filed as Kd, often an IC50 or EC50 that approximates it; bounds were set here for any values at or beyond the usual limits of such assays
- SETTINGS: source organism: Yersinia pestis CO92
pKd: −log10 of the molar value.
RESULT_TYPE: pKd

Q: Return reported pKd; argument: FRDRGQHVL
Ans: ≤ 5.30

###

- TARGET_OR_TEST_SYSTEM: HLA-A*68:23
- PROTOCOL_TEXT: IEDB peptide-MHC binding, purified MHC/competitive/fluorescence; filed as Kd, often an IC50 or EC50 that approximates it; bounds were set here for any values at or beyond the usual limits of such assays
- SETTINGS: source organism: Mycobacterium tuberculosis variant bovis BCG str. Pasteur 1173P2
RESULT_TYPE: pKd
Quick note: pKd values are minus log10 of concentrations in mol/L.

Q: Return reported pKd; argument: MTMITPPTF
Ans: 8.36

###

- TARGET_OR_TEST_SYSTEM: HLA-A*02:12
- PROTOCOL_TEXT: IEDB peptide-MHC binding, purified MHC/competitive/fluorescence; filed as Kd, often an IC50 or EC50 that approximates it; bounds were set here for any values at or beyond the usual limits of such assays
- SETTINGS: source organism: Pseudomonas aeruginosa UCBPP-PA14
RESULT_TYPE: Kd (nM)
Your answer is read as nM, so omit the unit and give the number.

Q: Return reported Kd; argument: FLDDASNSA
Ans: 2.2

###

- TARGET_OR_TEST_SYSTEM: HLA-B*27:05
- PROTOCOL_TEXT: IEDB peptide-MHC binding, purified MHC/direct/fluorescence; filed as Kd, often an IC50 or EC50 that approximates it; bounds were set here for any values at or beyond the usual limits of such assays
- SETTINGS: source organism: Yersinia enterocolitica
RESULT_TYPE: Kd

Q: Return reported Kd; argument: YRLVSAVEK
Ans: 29.9 nM
